# System: Aspergillus fumigatus
# assayOverview: Antifungal activity against Aspergillus fumigatus AF-27 after 72 hrs by microbroth dilution technique
# Assay type: functional, organism-based
# measurementSetup: AF-27, 72 h
# IC50 per entry
Number only, in µg/mL; omit the unit.

Q) Item under review: `COC(=O)CC[C@@H](C)[C@H]1CC[C@H]2[C@@H]3CC[C@@H]4C[C@](O)(CNCCN)CC[C@]4(C)[C@H]3C[C@H](O)[C@]12C` . Reported IC50?
A) 8.14

Q) # IC50 lookup, item `COC(=O)CC[C@@H](C)[C@H]1CC[C@H]2[C@@H]3[C@H](O)C[C@@H]4C[C@](O)(CNCCN)CC[C@]4(C)[C@H]3C[C@H](O)[C@]12C`
A) 50

Q) I'd like to know its IC50. The molecule in question is `COC(=O)CC[C@@H](C)[C@H]1CC[C@H]2[C@@H]3CC[C@@H]4C[C@](O)(CN)CC[C@]4(C)[C@H]3C[C@H](O)[C@]12C`
A) 50
